# System: gingival carcinoma (Ca9-22) cells
# method summary: Cytotoxicity assay (MTT), Ca9-22
# Format: cell-based, human
# particulars: Homo sapiens, Ca9-22; tumor cell line, 48 h, MTT
# Procedure: The cytotoxicity of the compounds 4a - 4j were assayed towards human tumor cell lines [gingival carcinoma (Ca9–22), oral squamous cell carcinoma (HSC-2)] and human normal oral cells [gingival fibroblasts (HGF), and periodontal ligament fibroblasts (HPLF)] as described [42, 54 – 56]. […] The viable cell numbers were determined by the 3-(4,5-dimethylthiazol-2-yl)-2,5-diphenyltetrazolium bromide (MTT) assay. The CC50 values were determined from dose-response curves. […]
// returns Not met unless CC50 is strictly below 10 µM, in which case Met

Worked examples, 4 molecules total:
molecule	study target	class name
COc1ccc(C2=NN(c3ccc(S(N)(=O)=O)cc3)C(c3ccc4c(c3)OCO4)C2)cc1 (stereo not drawn)	gingival carcinoma (Ca9-22) cells	Not met
COc1cccc(C2=NN(c3ccc(S(N)(=O)=O)cc3)C(c3ccc4c(c3)OCO4)C2)c1 (stereo not drawn)	gingival carcinoma (Ca9-22) cells	Not met
COc1cc(C2=NN(c3ccc(S(N)(=O)=O)cc3)C(c3ccc4c(c3)OCO4)C2)ccc1O (stereo not drawn)	gingival carcinoma (Ca9-22) cells	Not met
COc1cc(C2=NN(c3ccc(S(N)(=O)=O)cc3)C(c3ccc4c(c3)OCO4)C2)cc(OC)c1OC (stereo not drawn)	gingival carcinoma (Ca9-22) cells	Met

We next turn to a different molecule, shown below.
[Q] Strictly below 10 µM in CC50? COc1ccccc1C1=NN(c2ccc(S(N)(=O)=O)cc2)C(c2ccc3c(c2)OCO3)C1 (stereo not drawn)
[A] Not met

---

# method summary: Cytotoxicity assay (MTT), HPLF normal cells
# Assay type: cell-based
# particulars: human, HPLF periodontal ligament fibroblasts (normal oral cells), non-tumor cells
// returns class 0 unless CC50 at 48 h is strictly below 200 µM, in which case class 1

compound	class name
NS(=O)(=O)c1ccc(N2N=C(c3ccccc3)CC2c2ccc3c(c2)OCO3)cc1 (centres unmarked)	class 1

[Q] Strictly below 200 µM in CC50 at 48 h? COc1cc(C2=NN(c3ccc(S(N)(=O)=O)cc3)C(c3ccc4c(c3)OCO4)C2)ccc1O (centres unmarked)
[A] class 1

[Q] Strictly below 200 µM in CC50 at 48 h? COc1cccc(C2=NN(c3ccc(S(N)(=O)=O)cc3)C(c3ccc4c(c3)OCO4)C2)c1 (centres unmarked)
[A] class 1

[Q] Strictly below 200 µM in CC50 at 48 h? O=c1[nH]cc(F)c(=O)[nH]1 [5-FU, 5-Fluorouracil, reference compound]
[A] class 0

[Q] Strictly below 200 µM in CC50 at 48 h? COc1ccc(C2=NN(c3ccc(S(N)(=O)=O)cc3)C(c3ccc4c(c3)OCO4)C2)c(OC)c1 (centres unmarked)
[A] class 0

[Q] Strictly below 200 µM in CC50 at 48 h? COc1ccc(OC)c(C2=NN(c3ccc(S(N)(=O)=O)cc3)C(c3ccc4c(c3)OCO4)C2)c1 (centres unmarked)
[A] class 0

[Q] Strictly below 200 µM in CC50 at 48 h? COc1ccc(C2=NN(c3ccc(S(N)(=O)=O)cc3)C(c3ccc4c(c3)OCO4)C2)cc1 (centres unmarked)
[A] class 0

[Q] Strictly below 200 µM in CC50 at 48 h? COc1cc(OC)c(C2=NN(c3ccc(S(N)(=O)=O)cc3)C(c3ccc4c(c3)OCO4)C2)cc1OC (centres unmarked)
[A] class 0

---

The molecules listed here are annotated with their melting point.

Would you please look over these solved cases?
molecule	melting point
COc1ccccc1C1=NN(c2ccc(S(N)(=O)=O)cc2)C(c2ccc3c(c2)OCO3)C1 (stereo not drawn)	183 to 185 °C
COc1cc(OC)c(C2=NN(c3ccc(S(N)(=O)=O)cc3)C(c3ccc4c(c3)OCO4)C2)cc1OC (stereo not drawn)	191 to 193 °C
COc1cc(C2=NN(c3ccc(S(N)(=O)=O)cc3)C(c3ccc4c(c3)OCO4)C2)cc(OC)c1OC (stereo not drawn)	212 to 214 °C
COc1ccc(OC)c(C2=NN(c3ccc(S(N)(=O)=O)cc3)C(c3ccc4c(c3)OCO4)C2)c1 (stereo not drawn)	144 to 146 °C
COc1ccc(C2=NN(c3ccc(S(N)(=O)=O)cc3)C(c3ccc4c(c3)OCO4)C2)cc1 (stereo not drawn)	171 to 173 °C

[Q] Return reported melting point; argument: COc1ccc(C2=NN(c3ccc(S(N)(=O)=O)cc3)C(c3ccc4c(c3)OCO4)C2)cc1OC (stereo not drawn)
[A] 243 to 245 °C

---

# study target: hCA I (Homo sapiens, UniProt P00915)
# Sequence (P00915 whole entry): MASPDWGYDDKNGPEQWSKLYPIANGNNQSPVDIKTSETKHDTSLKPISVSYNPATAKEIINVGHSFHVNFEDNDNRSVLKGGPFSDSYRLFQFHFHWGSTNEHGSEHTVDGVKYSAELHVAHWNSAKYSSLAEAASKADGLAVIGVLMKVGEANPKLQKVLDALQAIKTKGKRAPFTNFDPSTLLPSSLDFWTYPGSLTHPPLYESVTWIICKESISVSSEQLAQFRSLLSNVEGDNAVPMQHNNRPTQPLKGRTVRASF
The compounds listed here are annotated with their pKi.
Entry type: numeric. Quantity: pKi, the -log10 of concentration in molar units.

Would you please look over these solved cases?
compound	pKi
COc1ccc(OC)c(C2=NN(c3ccc(S(N)(=O)=O)cc3)C(c3ccc4c(c3)OCO4)C2)c1 (stereo not drawn)	4.56
COc1ccc(C2=NN(c3ccc(S(N)(=O)=O)cc3)C(c3ccc4c(c3)OCO4)C2)c(OC)c1 (stereo not drawn)	4.90

Here is another compound to look at.
[Q] Return reported pKi; argument: COc1cc(OC)c(C2=NN(c3ccc(S(N)(=O)=O)cc3)C(c3ccc4c(c3)OCO4)C2)cc1OC (stereo not drawn)
[A] 4.30

---

# Tested on: oral squamous cell carcinoma (HSC-2) cells
# method summary: Cytotoxicity assay (MTT), HSC-2
# Format: cell-based, human
# particulars: cytotoxicity relative to 5-FU
measured parameter: times of potency compared to 5-FU, HSC-2
Reply: number alone, nothing else.

compound	times of potency compared to 5-FU, HSC-2
COc1ccc(OC)c(C2=NN(c3ccc(S(N)(=O)=O)cc3)C(c3ccc4c(c3)OCO4)C2)c1 (centres unmarked)	16.6

[Q] Identify the measured times of potency compared to 5-FU, HSC-2 of COc1ccc(C2=NN(c3ccc(S(N)(=O)=O)cc3)C(c3ccc4c(c3)OCO4)C2)cc1 (centres unmarked) for oral squamous cell carcinoma (HSC-2) cells.
[A] 14.5

[Q] Identify the measured times of potency compared to 5-FU, HSC-2 of NS(=O)(=O)c1ccc(N2N=C(c3ccccc3)CC2c2ccc3c(c2)OCO3)cc1 (centres unmarked) for oral squamous cell carcinoma (HSC-2) cells.
[A] 10

[Q] Identify the measured times of potency compared to 5-FU, HSC-2 of COc1cccc(C2=NN(c3ccc(S(N)(=O)=O)cc3)C(c3ccc4c(c3)OCO4)C2)c1 (centres unmarked) for oral squamous cell carcinoma (HSC-2) cells.
[A] 14.3

---

# study target: hCA I (Homo sapiens, UniProt P00915)
// returns no (0) unless IC50 is strictly below 10 µM, in which case yes (1)

Worked examples, 4 compounds total:
compound	study target	class name
COc1ccc(C2=NN(c3ccc(S(N)(=O)=O)cc3)C(c3ccc4c(c3)OCO4)C2)c(OC)c1 (stereo not drawn) [4g]	hCA I (Homo sapiens, UniProt P00915)	yes (1)
COc1cccc(C2=NN(c3ccc(S(N)(=O)=O)cc3)C(c3ccc4c(c3)OCO4)C2)c1 (stereo not drawn) [4c]	hCA I (Homo sapiens, UniProt P00915)	yes (1)
COc1cc(C2=NN(c3ccc(S(N)(=O)=O)cc3)C(c3ccc4c(c3)OCO4)C2)ccc1O (stereo not drawn) [4j]	hCA I (Homo sapiens, UniProt P00915)	no (0)
COc1cc(OC)c(C2=NN(c3ccc(S(N)(=O)=O)cc3)C(c3ccc4c(c3)OCO4)C2)cc1OC (stereo not drawn) [4h]	hCA I (Homo sapiens, UniProt P00915)	no (0)

We next turn to a different compound, shown below.
[Q] Strictly below 10 µM in IC50? NS(=O)(=O)c1ccc(N2N=C(c3ccccc3)CC2c2ccc3c(c2)OCO3)cc1 (stereo not drawn) [4a]
[A] no (0)

---

# method summary: Cytotoxicity assay, all non-tumor cells (mean)
# Type: cell-based
# particulars: human, normal oral cells HGF, HPLF and HPC (mean of the three), read-out: Non-tumor cell lines CC50 mean (D)
measured parameter: log10(CC50 at 48 h) (log10 of the value in µM)
Would you kindly interpret these values as log10 of CC50 at 48 h expressed in µM?

[Q] Return reported log10(CC50 at 48 h); argument: COc1ccc(C2=NN(c3ccc(S(N)(=O)=O)cc3)C(c3ccc4c(c3)OCO4)C2)cc1 (centres unmarked)
[A] 2.48

[Q] Return reported log10(CC50 at 48 h); argument: COc1cc(C2=NN(c3ccc(S(N)(=O)=O)cc3)C(c3ccc4c(c3)OCO4)C2)ccc1O (centres unmarked)
[A] 1.81

[Q] Return reported log10(CC50 at 48 h); argument: COc1ccc(C2=NN(c3ccc(S(N)(=O)=O)cc3)C(c3ccc4c(c3)OCO4)C2)c(OC)c1 (centres unmarked)
[A] 2.41

[Q] Return reported log10(CC50 at 48 h); argument: O=c1[nH]cc(F)c(=O)[nH]1 [5-FU, 5-Fluorouracil, reference compound]
[A] 2.99

[Q] Return reported log10(CC50 at 48 h); argument: NS(=O)(=O)c1ccc(N2N=C(c3ccccc3)CC2c2ccc3c(c2)OCO3)cc1 (centres unmarked)
[A] 1.72

[Q] Return reported log10(CC50 at 48 h); argument: COc1ccc(C2=NN(c3ccc(S(N)(=O)=O)cc3)C(c3ccc4c(c3)OCO4)C2)cc1OC (centres unmarked)
[A] 2.60

[Q] Return reported log10(CC50 at 48 h); argument: COc1ccccc1C1=NN(c2ccc(S(N)(=O)=O)cc2)C(c2ccc3c(c2)OCO3)C1 (centres unmarked)
[A] 1.58

[Q] Return reported log10(CC50 at 48 h); argument: COc1cc(OC)c(C2=NN(c3ccc(S(N)(=O)=O)cc3)C(c3ccc4c(c3)OCO4)C2)cc1OC (centres unmarked)
[A] 2.60

[Q] Return reported log10(CC50 at 48 h); argument: COc1ccc(OC)c(C2=NN(c3ccc(S(N)(=O)=O)cc3)C(c3ccc4c(c3)OCO4)C2)c1 (centres unmarked)
[A] 2.44

[Q] Return reported log10(CC50 at 48 h); argument: COc1cccc(C2=NN(c3ccc(S(N)(=O)=O)cc3)C(c3ccc4c(c3)OCO4)C2)c1 (centres unmarked)
[A] 2.08

[Q] Return reported log10(CC50 at 48 h); argument: COc1cc(C2=NN(c3ccc(S(N)(=O)=O)cc3)C(c3ccc4c(c3)OCO4)C2)cc(OC)c1OC (centres unmarked)
[A] 2.45
